Each recorded value in this set is attributed to patent US20070077597A1.

- target: T1, human thrombin receptor (PAR1) (human, UniProt P25116 42-425)
- T1 sequence (looked up): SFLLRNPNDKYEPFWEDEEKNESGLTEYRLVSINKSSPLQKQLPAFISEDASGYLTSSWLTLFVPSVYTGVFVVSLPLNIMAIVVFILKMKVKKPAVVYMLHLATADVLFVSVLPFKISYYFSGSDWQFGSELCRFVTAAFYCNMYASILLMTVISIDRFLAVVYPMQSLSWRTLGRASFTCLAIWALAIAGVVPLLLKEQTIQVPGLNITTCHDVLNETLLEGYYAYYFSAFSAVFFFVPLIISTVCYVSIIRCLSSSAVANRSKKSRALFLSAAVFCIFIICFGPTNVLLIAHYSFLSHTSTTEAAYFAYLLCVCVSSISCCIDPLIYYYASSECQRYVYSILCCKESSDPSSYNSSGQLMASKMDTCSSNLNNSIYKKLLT
- procedure.details: cell-based or functional assay
Would you kindly list thrombin-mediated HA-MAPK activity in HMEC for each of these binders?
Give bare numbers, in % decrease.

Please review the entries below; each comes with its answer.
1) MGLQLNLKEYNAV [Gαq C-terminal minigene peptide (pcDNA-Gαq)]: 57
2) MGIKNNLKDCGLF [Gαi C-terminal minigene peptide (pcDNA-Gαi)]: 59
3) MGLQENLKDIMLQ [Gα12 C-terminal minigene peptide (pcDNA-Gα12)]: 50

Look up and state reported thrombin-mediated HA-MAPK activity in HMEC for MGLHDNLKQLMLQ [Gα13 C-terminal minigene peptide (pcDNA-Gα13)]
77
